Entries annotated with measured composite z-score
Experiment: small-molecule microarray binders of probe aWnt5a, primary screen, biochemical, biotinylated probe, 635/667 nm fluorescence (AID 1113);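 also: score merges 667 nm fluorescence intensity with signal-to-noise per printed feature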
Conditions: higher = more signal
Measured attribute: composite z-score

• O=C1C2=CC[C@H]3C(=O)N(c4cccc(Oc5ccccc5)c4)C(=O)[C@H]3[C@H]2[C@H](O)[C@@H]2O[C@H]12 = -0.157
• CC(CCN1CCCCc2nc(C)c(C)cc21)=NO[C@@H](C)c1cn([C@H](CO)Cc2ccccc2)nn1 = -0.152
• CC(=O)OC[C@H]1O[C@H](CC=NO[C@H](C)c2cn([C@H](CO)Cc3ccccc3)nn2)C=C[C@@H]1OC(C)=O = -0.0231
• C=CC[C@@H]1C=C[C@H](ON=C(C)CCC(=O)OC[C@H]2O[C@H](C#Cc3ccccc3)C=C[C@@H]2Oc2ccc(C)cc2)[C@@H](CO)O1 = -0.0236
